Task for the reader: assign each of the following compounds its reported % inhibition male (individual replicates) R3.
Test system: P. falciparum male gametocytes
procedure.text: P. falciparum Dual Gamete Formation Assay (PfDGFA), male readout (exflagellation)
Assay type: cell-based, Plasmodium falciparum NF54
protocol.conditions: PfDGFA at 2µM, 24h preincubation with gametocytes; replicate R3
Method: […] The Pf DGFA was performed as described in Delves et al. 2016 [17]. […] Exflagellation was recorded by capturing 10 frames over 1 s under brightfield illumination using a x4 objective with a 1.5x zoom (effectively x6) attached to an automated Nikon Ti fluorescence microscope. […] The plates were then returned to the microscope and female gametes imaged at x6 using fluorescence microscopy. […]
Give the quantity in %, number only.

-- ask Query % inhibition male (individual replicates) R3 on P. falciparum male gametocytes for `COc1cc2nc(NCCCN3CCCCC3)nc(NCc3ccccc3)c2cc1OC`
-- reply 87.5

-- ask Field: % inhibition male (individual replicates) R3 (P. falciparum male gametocytes). Entry: CC(Cc1ccc(C(=O)Nc2ccc(CC(C)NCCc3cccc(Cl)c3)cc2)cc1)NCCc1ccc(C(F)(F)F)cc1 (centres unmarked)
-- reply 51.0

-- ask Look up % inhibition male (individual replicates) R3 with P. falciparum male gametocytes for this compound: `CN1CCN(c2cc3c(cc2Cl)CCN3C(=O)Nc2ccc(NC(=O)c3ccc(C(F)(F)F)cc3)cc2)CC1.Cl`
-- reply 63.5

-- ask Checklist item: % inhibition male (individual replicates) R3 tested on P. falciparum male gametocytes, entry `COc1cc2nc(NCc3cccc(CNC(=O)c4ccc(-c5ccc(C(C)=O)cc5)cc4)c3)nc(N)c2cc1OC.O=C(O)C(F)(F)F` , value?
-- reply 22.4

-- ask I'm curious: which % inhibition male (individual replicates) R3 was measured for `C=CCOc1ccc2ccccc2c1CNCCCCCCNCc1c(OCC=C)ccc2ccccc12.CS(=O)(=O)O` tested on P. falciparum male gametocytes?
-- reply 68.3

-- ask For the record `CCOc1c(CNCCCCCCNCc2ccc3ccccc3c2OCC)ccc2ccccc12.CS(=O)(=O)O` , what value of % inhibition male (individual replicates) R3 is listed for P. falciparum male gametocytes?
-- reply 64.7

-- ask Requested read-out % inhibition male (individual replicates) R3, target or system P. falciparum male gametocytes, entry `COc1cc2ccccc2c(OC)c1CNCCCCCCNCc1c(OC)cc2ccccc2c1OC.CS(=O)(=O)O`
-- reply 58.2

-- ask Param readout= % inhibition male (individual replicates) R3; system= P. falciparum male gametocytes; entry= `CS(=O)(=O)O.FC(F)(F)COc1ccc2ccccc2c1CCNCCCCNCCc1c(OCC(F)(F)F)ccc2ccccc12` ; returns value.
-- reply 68.3

-- ask Could you share what % inhibition male (individual replicates) R3 was measured for `COc1cc(NC(=O)c2sc(-c3ccc(Cl)cc3)cc2NC(=O)c2ccncc2)ccc1OCCN1CCCC1` , tested on P. falciparum male gametocytes?
-- reply 87.5

-- ask Please state recorded % inhibition male (individual replicates) R3 (tested on P. falciparum male gametocytes) of CC(C#N)Cc1ccc(-c2cnc(N)c3cc(-c4ccnc(N)n4)ccc23)cc1 (centres unmarked)
-- reply 80.2

-- ask Notebook entry, P. falciparum male gametocytes assay: % inhibition male (individual replicates) R3 of `CCOc1ccc2ccccc2c1CNCCCCCCNCc1c(OCC)ccc2ccccc12.CS(=O)(=O)O` = ?
-- reply 68.9

----------
Test system: P. falciparum female gametocytes
procedure.text: P. falciparum Dual Gamete Formation Assay (PfDGFA), female readout (Pfs25-positive female gametes)
Type: cell-based, Plasmodium falciparum NF54
protocol.conditions: Plasmodium falciparum; PfDGFA at 2µM, 24h preincubation with gametocytes; replicate R4; read-out: % inhibition female (individual replicates) R4
Categories are defined by ranges of inhibition at 2 µM, namely low group (below 20%), middle group (20% to below 80%), high group (80% or more)

-- ask // bin(item) where item = `Cn1c(Sc2ncnc3sccc23)nc2ccccc21`
-- reply middle group

-- ask Just checking, what class would you give `CCc1cc2c(Sc3nnc(N)s3)ncnc2s1` here?
-- reply middle group

-- ask Kindly state the category for this compound: `CC(C)(CN)c1nc(-c2ccc(Br)c(O)c2)c(-c2ccncc2)[nH]1.Cl`
-- reply high group

-- ask Sort `CCN(CC)CCOc1ccc(Nc2ncc3cc(-c4c(Cl)cccc4Cl)c(=O)n(C)c3n2)cc1` into one of the categories.
-- reply low group

-- ask Lab note: which band did `c1ccc2[nH]c(CN(Cc3nc4ccccc4[nH]3)Cc3nc4ccccc4[nH]3)nc2c1` land in?
-- reply low group

-- ask Which category fits this record: `COc1cc(-c2nc(C(C)(C)CN)[nH]c2-c2ccncc2)ccc1Br.Cl`
-- reply middle group

-- ask State the class of the compound shown: `COc1ccc2nc(-c3cc(-c4ccc(NC(=O)C(C)C)cc4)cnc3N)[nH]c2c1`
-- reply low group

-- ask Tag the class for `Cc1ccc(-n2c(Sc3ncnc4sccc34)nnc2N2CCCC2)cc1`
-- reply high group

----------
Test system: P. falciparum male gametocytes
procedure.text: P. falciparum Dual Gamete Formation Assay (PfDGFA), male readout (exflagellation)
Format: cell-based, Plasmodium falciparum NF54
protocol.conditions: Plasmodium falciparum; PfDGFA at 2µM, 24h preincubation with gametocytes; replicate R2; read-out: % inhibition male (individual replicates) R2
# label = 1 (yes) if inhibition at 2 µM >= 90% else 0 (no)

-- ask I'd appreciate it if you could say whether COc1cccc(C23NC(=Nc4nc5ccccc5[nH]4)NC2(c2cccc(OC)c2)NC(=Nc2nc4ccccc4[nH]2)N3)c1 (centres unmarked) has inhibition at 2 µM at least equal to 90%.
-- reply 0 (no)

-- ask Has `COc1cc(-c2nc(C(C)(C)CN)[nH]c2-c2ccncc2)ccc1Br.Cl` a recorded inhibition at 2 µM greater than or equal to 90%?
-- reply 1 (yes)

-- ask Assess whether reported inhibition at 2 µM for `CCN(CC)CCOc1ccc(Nc2ncc3cc(-c4c(Cl)cccc4Cl)c(=O)n(C)c3n2)cc1` sits at 90% or higher.
-- reply 0 (no)

-- ask Please indicate if the recorded inhibition at 2 µM for `CNC(=O)c1cnc(Nc2ccc(N3CCN(C)CC3)cc2)nc1Nc1ccccc1OC.O=C(O)C(F)(F)F` meets or exceeds 90%.
-- reply 0 (no)

-- ask Dear colleague, could you confirm whether `Cc1sc2ncnc(Sc3nnc(N)s3)c2c1C` has inhibition at 2 µM at or above 90%?
-- reply 1 (yes)

-- ask Given the entry `COc1ccc2nc(-c3cc(-c4ccc(NC(=O)C(C)C)cc4)cnc3N)[nH]c2c1` , answer whether its inhibition at 2 µM meets or surpasses 90%.
-- reply 0 (no)

----------
Tested on: P. falciparum female gametocytes
procedure.text: P. falciparum Dual Gamete Formation Assay (PfDGFA), female readout (Pfs25-positive female gametes)
Assay type: cell-based, Plasmodium falciparum NF54
protocol.conditions: PfDGFA at 2µM, 24h preincubation with gametocytes prior to induction of gametogenesis; replicate R3
Procedure: […] The Pf DGFA was performed as described in Delves et al. 2016 [17]. […] Exflagellation was recorded by capturing 10 frames over 1 s under brightfield illumination using a x4 objective with a 1.5x zoom (effectively x6) attached to an automated Nikon Ti fluorescence microscope. […] The plates were then returned to the microscope and female gametes imaged at x6 using fluorescence microscopy. […]
Classification field: true (1) = % inhibition female (individual replicates) R3 at or over -20%; false (0) = % inhibition female (individual replicates) R3 under -20%.

-- ask Could you tell me if the measured % inhibition female (individual replicates) R3 of Cc1cc(N2CCN(C)CC2)nc2ccc(NC(=O)Cc3cccc(C(F)(F)F)c3)cc12 [TCMDC-123590] reaches -20% or more?
-- reply true (1)

-- ask Given COCCOc1nc(N)nc2ncc(Cc3cc(OC)ccc3OC)c(C)c12 [TCMDC-137754] , state whether its % inhibition female (individual replicates) R3 is at least -20%.
-- reply true (1)

-- ask % inhibition female (individual replicates) R3 >= -20% for O=C(COc1ccccc1)N(Cc1ccc(-c2ccc(CNC3Cc4ccccc4C3)cc2)cc1)C1CCNCC1.O=C(O)C(F)(F)F [TCMDC-141450] ?
-- reply false (0)

-- ask Hi, just wondering whether CCCCOc1ccc(N2C(N)=NC(N)=NC2(C)C)cc1.Cl [TCMDC-124279] shows % inhibition female (individual replicates) R3 of -20% or higher.
-- reply false (0)

-- ask # bool: % inhibition female (individual replicates) R3 of OCc1ccc2nc3c(cc2c1)-c1cccc2cccc-3c12 [TCMDC-137756] >= -20%
-- reply false (0)

-- ask Is % inhibition female (individual replicates) R3 at least -20%? Consider CC(O)C1CCCCN1C(=O)c1ccc(-c2ccc(-c3nc4ccccc4[nH]3)s2)cc1 (centres unmarked) [TCMDC-132330]
-- reply false (0)

-- ask Given the entry Cc1cc(CNCCCCCCCNCc2ccc(-c3ccccc3)cc2)ccc1O [TCMDC-140415] , answer whether its % inhibition female (individual replicates) R3 meets or surpasses -20%.
-- reply true (1)

-- ask Reported % inhibition female (individual replicates) R3 at or above -20%? COc1cccc(Cc2cnc3nc(N)nc(N)c3c2C)c1 [TCMDC-138060]
-- reply true (1)

-- ask // inclusive: % inhibition female (individual replicates) R3 at least -20%? input: CC(C)N(Cc1cnc2nc(N)nc(N)c2n1)c1ccc(Cl)c(Cl)c1 [TCMDC-137675]
-- reply true (1)

-- ask Textbook exercise: given the entry Cl.Nc1nc(N)c2c(ccc3nn(S(=O)(=O)N4CCCC4)cc32)n1 [TCMDC-137854] , state whether its % inhibition female (individual replicates) R3 is greater than or equal to -20%.
-- reply true (1)

-- ask Identify whether the reported % inhibition female (individual replicates) R3 of the following compound is -20% or greater: COc1ccc(C(=O)Nc2cc(Cl)c3c(c2)C2CCCN2CC3)cc1C(F)(F)F.Cl (centres unmarked) [TCMDC-139417]
-- reply true (1)
